Tested on: NOMO1
MEASUREMENT_PROTOCOL: cell viability relative to DMSO control; higher = less cytotoxic
CONDITION_DESCRIPTION: RPMI 5 mM glucose + 10% dialyzed FBS; 48 h; 5.12 µM
Property: cell viability; scope: individual compounds
PROPERTY_LABEL: cell viability (%)

>>> obs_value("COc1cc([C@@H]2c3cc4c(cc3[C@@H](O[C@@H]3O[C@@H]5CO[C@@H](c6cccs6)O[C@H]5[C@H](O)[C@H]3O)[C@H]3COC(=O)[C@H]23)OCO4)cc(OC)c1O")
99.3
>>> obs_value("CC(C)NCC(O)COc1ccc(CCOCC2CC2)cc1 (centres undefined)")
116
>>> obs_value("CN(C)c1ccc2cc(C(=O)N[C@@H](CCCNC(=N)CCl)C(=O)NCc3ccccc3)ccc2c1")
105
>>> obs_value("COc1ccc2c(c1OC)CN1CCc3cc4c(cc3C1C2)OCO4 (centres undefined)")
20.5
